melting point values by entry

Please review the entries below; each comes with its answer.
For Cc1ccc(N2N=CC(=NNc3cccc(-c4cccc(C(=O)O)c4)c3O)C2=O)cc1C , what is its reported melting point?
226 to 228 °C

For CCCOc1nc(N)nc2c1ncn2C1C=CC(CO)C1 (stereo not given) , what is its reported melting point?
97 to 99 °C

For COC(=O)CCCNC(=O)C(COS(C)(=O)=O)NS(=O)(=O)c1ccc(Cl)cc1 (racemic) , what is its reported melting point?
95 to 99 °C

Further cases:
For C[C@]12C[C@H](c3ccc(OCCCCCl)cc3)C3=C4CCC(=O)C=C4CC[C@H]3[C@@H]1CCC2=O , what is its reported melting point?
194 °C

For CCC(C)c1ccc(-n2c(-c3cc(C)c(OCCO)c(C)c3)nc3cc(S(C)(=O)=O)ccc3c2=O)cc1 (stereo not given) , what is its reported melting point?
235 to 237 °C

For COC(=O)c1ccc(OCCNC(=O)C2Cc3ccccc3N2S(=O)(=O)c2ccc(-c3ccc(F)cc3OC)cc2)cc1F (stereo not given) , what is its reported melting point?
73 to 80 °C

For O=C1c2ccc(N=C(c3ccccc3)N3CCCCC3)cc2C(=O)c2ccc(N=C(c3ccccc3)N3CCCCC3)cc21 , what is its reported melting point?
264 to 266 °C

For Cc1ccc(Nc2nnc(Cc3ccncc3)c3ccccc23)cc1 , what is its reported melting point?
152 to 153 °C

For CN1Cc2c(C(=O)O)ncn2-c2cccnc2C1=O , what is its reported melting point?
292 to 295 °C

For CC(=O)c1c(C)[nH]c(CC(C)C)c1C , what is its reported melting point?
150 to 152 °C

For C=C(C)C(=O)Oc1ccc(S(=O)(=O)NC)cc1 , what is its reported melting point?
106 to 107 °C

For CCOC(=O)c1csc(-c2ccc3c(=O)n(CC(C)C)c(CNC(=O)OCC4c5ccccc5-c5ccccc54)c(-c4ccccc4)c3c2)n1 , what is its reported melting point?
151 to 152 °C

For N#Cc1nc(-c2nn(-c3c(Cl)cc(C(F)(F)F)cc3Cl)nc2Cl)[nH]c1C#N , what is its reported melting point?
206 to 208 °C

For CCOCc1nc2c(N)nc3cc(CCC(=O)N4CCOCC4)ccc3c2n1CC(C)(C)O , what is its reported melting point?
118 to 119 °C

For O=C(NCc1ccc(Cl)cc1)c1cnc2ccc(C#CCO)cn2c1=O , what is its reported melting point?
179 to 181 °C

For Cc1nccn1-c1nc(-c2ccc(Cl)cc2)c(CCCN2C(=O)CNC2=O)o1 , what is its reported melting point?
197 to 198 °C

For CNC(N)=Nc1nc(-c2cccc(CNC(C)=O)n2)cs1 , what is its reported melting point?
181 °C

For CN(C)CCSc1nnc(SCN2C(=O)c3ccccc3S2(=O)=O)s1 , what is its reported melting point?
90.5 to 91.5 °C

For Oc1ccc(-c2nnnc(-c3cccc4ccccc34)c2-c2ccc(O)cc2O)c(O)c1 , what is its reported melting point?
> 280 °C

For Cc1cc(C)nc(NC(=O)NS(=O)(=O)N2CCCC2)n1 , what is its reported melting point?
180 to 181 °C

For CCc1nccc(NC(=O)Cc2ccc(O)cc2)c1Cl , what is its reported melting point?
158 to 161 °C

For O=c1[nH]c(=S)[nH]cc1CCCc1ccccc1 , what is its reported melting point?
180 to 182 °C
